Reference source for all entries: patent US20170107577A1

System: breast cancer cell lines
Test: Aurora kinase inhibitor sensitivity of breast cancer cell lines by Agro, TN and iBCR score (two published studies)
Type: cell-based
Settings: low iBCR score breast cancer cell lines; read-out: IC50, low iBCR score cell lines
Description: Two studies which treated breast cancer cell lines with Aurora kinase inhibitors were analyzed based on the Agro, TN and the iBCR score for these cell lines.
Listing of entries alongside the reported IC50.

[
  {
    "MOLECULE": "Cc1csc(-c2nnc(Nc3ccc(Oc4ncccc4-c4ccnc(N)n4)cc3)c3ccccc23)c1 [AMG 900]",
    "VALUE UNIT": "nM",
    "IC50": 0.7
  },
  {
    "MOLECULE": "Cc1cc(Nc2cc(N3CCN(C)CC3)nc(/C=C/c3ccccc3)n2)n[nH]1 [ENMD-2076]",
    "VALUE UNIT": "nM",
    "IC50": 5900
  }
]
